Test system: SK-MEL-2 melanoma
Experiment: NCI tumour cell line growth inhibition, 48 h
measuredAttribute: TGI (µM)
Numbers only, in µM.

# annotated cases, reported TGI shown
COc1ccc(C(=O)N=C2N(c3ccccc3)C(=Nc3ccccc3)C(=Nc3ccccc3)N2c2ccccc2)cc1    98.1
CN1C(=O)c2cccc3c([N+](=O)[O-])ccc(c23)C1=O    24.8
COc1cc2c(c(OC)c1OC)C(=O)c1c-2n(CCCN)c(=O)c2cc([N+](=O)[O-])ccc12    11.6
COC(=O)C1=C(O)C(C(=O)OC)[C@@]2(O)[C@@H](C(=O)OC)C(c3ccc(OC(=O)/C(=C/c4ccccc4)c4ccccc4)cc3)C[C@@H]1[C@@H]2C(=O)OC (some centres not stated)    46.2

For every item below, please supply its TGI.
1. CN1CCN(c2ccc3nc(-c4ccc5nc(-c6ccc(C(F)(F)F)cc6)[nH]c5c4)[nH]c3c2)CC1
2. COc1ccc(-n2nc(C)c3c(Nc4ccc(NC(=O)Nc5cc(C(F)(F)F)ccc5F)cc4)ncnc32)cc1
3. COc1cc(CSc2ccc(O)cc2)cc(O)c1O

Response:
3.5
4.91
79.1

====

So I've got a bunch of molecules here, and I need their TGI values.
System: COLO 205 colon
Test: NCI tumour cell line growth inhibition, 48 h

Check out these entries, answers already filled in.
NC(=O)c1nnc2cc(F)c(F)cc2c1N    > 100 µM
N#CC(C(=N/NC(N)=S)/C(=N\NC(N)=S)C(C#N)c1ccccc1)c1ccccc1 (stereo not given)    > 10 µM
CC(=O)N1C(=O)C(=O)c2cc(Cl)ccc21    > 100 µM
O=[N+]([O-])/C=C/c1cccc(F)c1    8.02 µM

We next turn to a different molecule, shown below.
Query: # get_value(readout='TGI', item= COc1cccc2c1C(=O)c1c(O)c3c(c(O)c1C2=O)C[C@@](O)(C(=O)COC(=O)c1cccnc1)C[C@@H]3OC1CC(N)C(O)C(C)O1 (stereo not given in full) )
Response: 1.01 µM

====

System: SR leukemia
Assay: NCI tumour cell line growth inhibition, 48 h
measuredAttribute: TGI

Field: example entries. Status: answers known.
COc1cc(C(CN)N(C)C)cc(OC)c1OC (stereo unspecified)    > 100 µM
CCCC(=O)C(CC)/C(CCC(=O)N(Cc1ccccc1)Cc1ccccc1)=N/NC(=O)C[N+](C)(C)C (stereo unspecified)    > 100 µM
CCCN(CCC)c1ccc(C=O)c(OC)c1    34.5 µM

Required: TGI, one value per molecule below.
1. N=c1nc(N)nc(N)n1-c1ccc(S(N)(=O)=O)cc1
2. Cn1c2nc(=Nc3ccc(Cl)cc3)n3ccc4ccccc4c3c2c(=O)n1-c1ccccc1
3. COC(=O)c1c(C)cccc1C1CN=NC12Cc1c(C)cccc1C2=O (stereo unspecified)

Response:
1: > 100 µM; 2: > 100 µM; 3: > 100 µM

====

Tested on: MDA-MB-231 breast
Assay: NCI tumour cell line growth inhibition, 48 h
Would you mind telling me the reported TGI of each entry?

List TGI for every entry below, keeping the order given.
1. O=C(CN1CCOCC1)NC1=Nc2ncccc2C(=O)NN1
2. COc1ccc(CCNC(=O)Cc2ccccc2CCO)cc1OC
3. CNNC1=NS(=O)(=O)c2cc(C(=O)OC)c(Cl)cc2S1
4. COc1ccc(OC)c2c1C(=O)C(Cl)=C(Cl)C2=O
5. COc1ccc(-n2c(C)nc3ccc(N=Cc4ccccc4)cc3c2=O)cc1
6. COc1ccc(/C=C/c2cc(=O)cc(/C=C/c3ccc(OC)c(O)c3)o2)cc1O

Response:
["> 10 µM", "> 100 µM", "> 10 µM", "6.57 µM", "> 100 µM", "5.73 µM"]

====

Please respond with reported TGI for every item in the list.
System: SF-268 CNS
Experiment: NCI tumour cell line growth inhibition, 48 h

Before answering, review these 5 worked examples.
O=C(O)c1cc2c3c(c1)[C@H]1C=CC[C@H]1CN3CC1CC=CC21 (some centres undefined)    > 100 µM
NC(Cc1ccc2oc3cc(=O)c4ccccc4c-3nc2c1)C(=O)O (centres undefined)    > 100 µM
COC(=O)[C@@H]1C[C@H]2[C@H](c3ccccc3Br)[C@@H](OC(C)=O)[C@@H](OCc3ccccc3)ON2O1    > 100 µM
COC(=O)C1=C(O)C(C(=O)OC)[C@@]2(O)[C@@H](C(=O)OC)C(c3ccc(OC(=O)/C(=C/c4ccccc4)c4ccccc4)cc3)C[C@@H]1[C@@H]2C(=O)OC (some centres undefined)    > 100 µM
NC(N)=NS(=O)(=O)c1ccc(NC(=O)c2ccc(Cl)c3c(Nc4ccc(S(=O)(=O)N=C(N)N)cc4)c4ccccc4nc23)cc1    > 100 µM

Answer for every listed entry: what is its TGI? The entries follow.
1. O=C1C=CC(=O)c2c(O)c(Nc3ccc(OC(F)(F)F)cc3)c(Cl)c(O)c21
2. O=C(CCNC(=O)OCc1ccccc1)OCCCNC(=O)OCc1ccccc1

Response:
1.49 µM
> 100 µM

Dear colleague, could you send me TGI for each of the items below? Thanks.
1. [O-]c1c(-c2ccccc2)[se]c(-c2ccccc2)[n+]1-c1ccccc1
2. Cc1ccccc1N=Nc1ccc(N=Nc2c(O)ccc3cc(S(=O)(=O)O)cc(S(=O)(=O)O)c23)c(C)c1

Response:
1. 21.6 µM
2. > 100 µM

====

Tested on: SF-268 CNS
Test: NCI tumour cell line growth inhibition, 48 h
measuredAttribute: TGI

Guide cases for TGI, answers given:
S=C(NNC1=NCCCCN1)Nc1ccccc1    > 100 µM
COc1cccc(NC(=O)c2c(SC)n[nH]c2N)c1    > 100 µM
N#C/C(=C/c1cccs1)c1cccs1    > 100 µM

Please state TGI for every compound in the list that follows.
1. COC(=O)c1ccccc1C1CN=NC12Cc1c(C)c3c(c(C)c1C2=O)CCC3 (stereo not given)
2. CN(C)c1ccc2c(SCC(=O)OCC(=O)[C@@]3(O)CC[C@H]4[C@@H]5CCC6=CC(=O)C=C[C@]6(C)[C@H]5C(=O)C[C@@]43C)c3ccc(N(C)C)cc3nc2c1
3. Cc1cc(C)c(S(=O)(=O)Oc2ccccc2[N+](=O)[O-])c(C)c1
4. C=C(Cl)C(Br)(CCl)CCC(Cl)C(C)C (stereo not given) (tested in a mixture with another compound)
5. NC(=O)c1nnc2cc(F)c(F)cc2c1N
6. CN([N-]C(=O)CC(=O)[N-]N(C)C(=S)c1ccccc1)C(=S)c1ccccc1.[Cu+2]
7. CNC(=O)OC(C)CN1c2ccccc2Sc2ccccc21 (stereo not given)

Response:
1. > 100 µM
2. > 100 µM
3. > 100 µM
4. 3.53 µM
5. 49.9 µM
6. 0.176 µM
7. > 100 µM

====

Tested on: U251 CNS
Test: NCI tumour cell line growth inhibition, 48 h
measuredAttribute: log10 TGI (log10 of the value in µM)
All values: log10 TGI [µM].

// below: answered molecules
CN(C)c1ncc(-c2c[nH]c3ccccc23)nc1-c1c[nH]c2ccccc12    1.06
O=C(Oc1ccccc1Cl)c1cccnc1Nc1ccnc(C(F)(F)F)c1    1.52

Give log10 TGI for each of the items listed below.
1. CCCCCCCCCCSS(=O)(=O)c1ccc(C)cc1
2. C[C@@H]1O[C@@H]2OCC[C@@H]2C2=C1C(=O)c1ccccc1C2=O
3. CN([N-]C(=O)CC(=O)[N-]N(C)C(=S)c1ccccc1)C(=S)c1ccccc1.[Cu+2]
4. C=C(C)[C@@H]1CC[C@]2(c3ncc(C)o3)CC[C@]3(C)[C@H](CC[C@@H]4[C@@](C)(CCC#N)[C@H](C(=C)C)CC[C@]43C)[C@@H]12

Response:
1. 1.16
2. 1.47
3. -0.90
4. 1.13

Look up log10 TGI for the entries below, preserving their order.
1. COC(=O)c1ccc(NCc2cc(O)c3ccccc3c2O)cc1
2. O=C(Cc1ccccc1)NN1C(=O)C(Cl)C1c1cc(Br)cc(Br)c1O (stereo unspecified)
3. CN(C)CCNc1ccc2nnn3c4ccc(Cl)cc4c(=O)c1c23
4. CN1CCN(c2ccc(NC3=C(Cl)C(=O)c4ncccc4C3=O)cc2C(F)(F)F)CC1
5. COc1ccc(S(=O)(=O)N2CCCCC2)cc1NC(=O)c1[nH]c(C)c2c1CCCCC2=O
6. CCCCCCCCOC(=O)c1cc(O)c(O)c(O)c1

Response:
1: 1.60; 2: 1.50; 3: 0.83; 4: 1.23; 5: 1.85; 6: 1.46

Batch of 2 molecules: report log10 TGI for each.
1. CC(C)NCCCNC1=C(Cl)C(=O)c2ccccc2C1=O
2. COC(=O)/C1=C/C2CC(/C=C(/c3ccccc3)C(=O)O1)C2

Response:
0.83
1.69
